Data origin, for the record: PubChem BioAssay (NCI)

System: LOX IMVI melanoma
Experiment: NCI-60 one-dose screen, 48 h
Details: 10 µM unless noted
This is part of a sample that, as a whole, favours compounds with a hit. Of some 83,000 tested, about 20% had one in any assay. Calls of active or inactive are those of the source. How the source made its calls: active means growth percent below 10; inactive means the rest.
In this exercise, the only acceptable responses are active, inactive

Input line: Outcome? "Cc1nc2cc(Nc3nc(NCCN)nc(Nc4ccc(F)cc4)n3)ccc2n1Cc1ccccc1"
Output line: inactive

Input line: Recorded test outcome, item "Nc1nc(N)c(C=Nc2ccc(Br)cc2)c(Nc2ccc(Br)cc2)n1"
Output line: inactive

Input line: What classification did "COc1ncc(F)c(OC)n1" end up with in this test?
Output line: inactive

Input line: Lab log entry: "COC(=O)c1c2c(c(C)[n+]([O-])c1C)C(=O)C=C(NCc1cccc(Cl)c1)C2=O" — outcome as called in the assay?
Output line: active

Input line: Which outcome was assigned to "NS(=O)(=O)c1cc(Br)c2c(c1)S(=O)(=O)NCN2" in this test?
Output line: inactive

Next:
Input line: Query: recorded result category for "Oc1cccc(Nc2nc(-c3ccccn3)cs2)c1" in this test
Output line: inactive

====

System: MALME-3M melanoma
Test: NCI-60 one-dose screen, 48 h (100 = growth as untreated, 0 = no growth, -100 = all killed)
Conditions: 10 µM unless noted
Compounds without any hit were thinned out: in the full panel of roughly 83,000, 20% have a hit.
endpoint: growth (%)
Answers are plain numbers, in %.

Input line: Identify growth associated with the compound N#CC1=C(N)Oc2cc(N)ccc2C1c1ccc(F)cc1 (stereo not drawn)
Output line: 71.9

Input line: Given the compound Cc1ccc(S(=O)(=O)N2CCc3ccc(O)c4c3C2Cc2cc(Cl)ccc2-4)cc1 (stereo not drawn) , write its reported growth.
Output line: 57

Further cases:
Input line: Identify measured growth associated with "Nc1ccccc1-c1n[nH]c(=O)[nH]c1=O"
Output line: 106

====

Test system: SF-539 CNS
Experiment: NCI-60 one-dose screen, 48 h (100 = growth as untreated, 0 = no growth, -100 = all killed)
Details: 10 µM unless noted
Compounds without any hit were thinned out: in the full panel of roughly 83,000, 20% have a hit. Active and inactive are the calls of the source. How the source made its calls: active means growth percent below 10; inactive means the rest.
endpoint: growth

Input line: Please give measured growth of the following entry: "Nc1nc(N)c(C=Nc2ccc(Br)cc2)c(Nc2ccc(Br)cc2)n1"
Output line: 101% (inactive)

Go through the list and state growth for each entry.
1. COc1ccc(/C=C/C(=O)N2CCC(O)CC2)cc1OC1CCCC1
2. Cc1oc2c(c1C(=O)N1CC[C@@H](N)C1)C(=O)c1c(c(O)c3ccccc3c1O)C2=O

Output line:
["95.8% (inactive)", "46.9% (inactive)"]

====

Test system: A549/ATCC NSCLC
Test: NCI-60 one-dose screen, 48 h
Details: 10 µM unless noted
The panel holds about 83,000 compounds, 20% with a hit somewhere; the sample as a whole holds those more often. Activity calls are given as the source filed them. How the source made its calls: active means growth percent below 10; inactive means the rest.
Could you please pick one outcome from this set? 1 (yes) for active, 0 (no) for inactive

Solved cases (2 shown):
Input line: Recorded test call requested for "O=C(N/N=C(\CS(=O)(=O)c1ccccc1)c1cc2ccccc2oc1=O)c1ccccc1"
Output line: 0 (no)

Input line: Returns: the outcome recorded for "COc1cc(CNCCN2C(=O)c3ccc4c5c(ccc(c35)C2=O)C(=O)N(CCNCc2cc(OC)c(OC)c(OC)c2)C4=O)cc(OC)c1OC" in this assay.
Output line: 1 (yes)

Next:
Input line: Call for entry O=C(NC1CC1)c1cc2n(n1)CC(c1ccccc1)N2 (centres undefined) :
Output line: 0 (no)

Input line: Which result was noted for this compound in the test: "Cc1nc2cc(Nc3nc(NCCO)nc(Nc4ccc(F)cc4)n3)ccc2n1Cc1ccccc1"
Output line: 0 (no)
